Test system: Streptococcus pneumoniae
protocol: Antimicrobial activity against Streptococcus pneumoniae 10 expressing mefA after 20 hrs by agar dilution method
Format: functional
condition context: Streptococcus pneumoniae, 20 h; read-out: MIC
metric: MIC (µg/mL)

>  <compound>
CCOC(=O)[C@H]1[C@H](C)O[C@@H](O[C@H]2[C@H](N(C)C)[C@@H](O)[C@H](O[C@H]3[C@@H](CC=O)C[C@@H](C)[C@@H](O)CN(C)CC(/C=C/Cc4ccc5ncccc5c4)CCOC(=O)C[C@@H](OC(=O)CC)[C@@H]3OC)O[C@@H]2C)C[C@@]1(C)O (some centres undefined)

>  <metric>
MIC

>  <numeric result>
0.015

$$$$
>  <compound>
CCOC(=O)[C@H]1[C@H](C)O[C@@H](O[C@H]2[C@H](N(C)C)[C@@H](O)[C@H](O[C@H]3[C@@H](CC=O)C[C@@H](C)[C@@H](O)CN(C)CC(/C=C/Cc4cncc5ccccc45)CCOC(=O)C[C@@H](OC(=O)CC)[C@@H]3OC)O[C@@H]2C)C[C@@]1(C)O (some centres undefined)

>  <metric>
MIC

>  <numeric result>
0.03

$$$$

(P) CCOC(=O)[C@H]1[C@H](C)O[C@@H](O[C@H]2[C@H](N(C)C)[C@@H](O)[C@H](O[C@H]3[C@@H](CC=O)C[C@@H](C)[C@@H](O)CN(C)CCC[C@@H](CCCc4ccnc5ccccc45)OC(=O)C[C@@H](OC(=O)CC)[C@@H]3OC)O[C@@H]2C)C[C@@]1(C)O
(Q) CCOC(=O)[C@H]1[C@H](C)O[C@@H](O[C@H]2[C@H](N(C)C)[C@@H](O)[C@H](O[C@H]3[C@@H](CC=O)C[C@@H](C)[C@@H](OC(C)=O)CN(CCCCc4ccccc4)CCC[C@@H](C)OC(=O)C[C@@H](OC(=O)CC)[C@@H]3OC)O[C@@H]2C)C[C@@]1(C)OC(C)=O
Lookup: Which value of MIC is smaller, the one for P or the one for Q ? Response format: the label of the selected entry.
Found: P
(P: 0.06 µg/mL, Q: 0.13 µg/mL)

----------
System: Haemophilus influenzae
protocol: Antimicrobial activity against drug-susceptible Haemophilus influenzae 4 after 20 hrs by agar dilution method
Assay type: functional
condition context: Haemophilus influenzae, 20 h; read-out: MIC
metric: MIC (µg/mL)

>  <compound>
CCOC(=O)[C@H]1[C@H](C)O[C@@H](O[C@H]2[C@H](N(C)C)[C@@H](O)[C@H](O[C@H]3[C@@H](CC=O)C[C@@H](C)[C@@H](O)CN(C)CCC[C@H](C/C=C/c4ccccc4)OC(=O)C[C@@H](OC(=O)CC)[C@@H]3OC)O[C@@H]2C)C[C@@]1(C)O

>  <numeric result>
8

$$$$

(P) CCOC(=O)[C@H]1[C@H](C)O[C@@H](O[C@H]2[C@H](N(C)C)[C@@H](O)[C@H](O[C@H]3[C@@H](CC=O)C[C@@H](C)[C@@H](O)CN(CCCc4ccnc5ccccc45)CC[C@@H](C)OC(=O)C[C@@H](OC(=O)CC)[C@@H]3OC)O[C@@H]2C)C[C@@]1(C)OC(C)=O
(Q) CCOC(=O)[C@H]1[C@H](C)O[C@@H](O[C@H]2[C@H](N(C)C)[C@@H](O)[C@H](O[C@H]3[C@@H](CC=O)C[C@@H](C)[C@@H](OC(C)=O)CN(CCCCc4ccccc4)CCCNC(=O)C[C@@H](OC(=O)CC)[C@@H]3OC)O[C@@H]2C)C[C@@]1(C)OC(C)=O
Lookup: Which value of MIC is smaller, the one for P or the one for Q ? Response format: the label of the selected entry.
Found: Q
